Values from paper PMC5733478

- target: human A3AR (Homo sapiens)
- Construct: expressed in transfected cells
- assay_info: LOPAC library primary screen: single concentration (10 μM) inhibition of 25 nM CA200645 binding, PHERAstar FS
Known % 25 nM CA200645 binding of a selection of compounds
Field format: number, assumed %, no unit text.

>>> data_value("Cl.NCCNS(=O)(=O)c1cccc2c(Cl)cccc12 [A3 hydrochloride]")
95.5
>>> data_value("O=C(Nc1ccc([N+](=O)[O-])cc1Cl)c1cc(Cl)ccc1O [Niclosamide]")
101.6
>>> data_value("Cl.c1ccc(CN2CCC3(CCCc4ccccc43)CC2)cc1 [L-687,384 hydrochloride]")
108.6
>>> data_value("Cc1ccccc1N1C(=O)c2cc(S(N)(=O)=O)c(Cl)cc2NC1C (centres unmarked) [Metolazone]")
90.5

stdin: Return % 25 nM CA200645 binding for the following compound: COc1ccccc1N1CCN(CCCNc2c(C)c(=O)n(C)c(=O)n2C)CC1 [Urapidil, 5-Methyl-]
stdout: 83.5

stdin: Return % 25 nM CA200645 binding for the following compound: CCCCCCCCCCC(C)(C)C(=O)Nc1c(OC)cc(OC)cc1OC [CI-976]
stdout: 89.4

stdin: Return % 25 nM CA200645 binding for the following compound: CCCn1c(=O)c2[nH]c(-c3ccc(S(=O)(=O)O)cc3)nc2n(CCC)c1=O [1,3-dipropyl-8-p-sulfophenylxanthine, reference compound]
stdout: 42.3

----------
- target: human A3AR (Homo sapiens, UniProt P0DMS8)
- Construct: expressed in transfected cells
- Sequence (P0DMS8 whole entry): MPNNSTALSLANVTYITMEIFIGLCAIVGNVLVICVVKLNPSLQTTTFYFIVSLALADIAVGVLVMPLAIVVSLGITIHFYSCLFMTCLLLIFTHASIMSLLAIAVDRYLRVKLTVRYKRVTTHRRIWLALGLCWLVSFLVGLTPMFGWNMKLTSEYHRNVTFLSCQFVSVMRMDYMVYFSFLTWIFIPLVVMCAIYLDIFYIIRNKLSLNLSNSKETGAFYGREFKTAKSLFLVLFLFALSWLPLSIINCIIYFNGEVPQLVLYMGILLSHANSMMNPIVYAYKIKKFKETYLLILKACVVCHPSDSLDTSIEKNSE
- assay_info: HTS (PHERAstar FS) fluorescent ligand competition binding in live CHO cells, 5 nM AV039 tracer
quantity: Ki (nM)
Field format: number, assumed nM, no unit text.

stdin: Return Ki for the following molecule: Nc1nc2ccc(Cl)cc2c2nc(-c3ccco3)nn12
stdout: 12.3

----------
- target: human A3AR (Homo sapiens, UniProt P0DMS8)
- Construct: expressed in transfected cells
- assay_info: LOPAC library primary screen: single concentration (10 μM) inhibition of 25 nM CA200645 binding, PHERAstar FS
Where a name gives a salt, the structure may show the parent alone.
quantity: % 25 nM CA200645 binding

stdin: Return % 25 nM CA200645 binding for the following compound: Cc1cccc(C)c1NC(=O)C(C)N (centres unmarked) [Tocainide hydrochloride]
stdout: 102.0 ± 15.0%

stdin: Return % 25 nM CA200645 binding for the following compound: NC(=S)c1ccc[n+]([C@@H]2O[C@@H](COP(=O)([O-])OP(=O)(O)OC[C@H]3O[C@@H](n4cnc5c(N)ncnc54)C(OP(=O)([O-])O)[C@H]3O)C(O)C2O)c1.[Na+] (some centres unmarked) [Thio-NADP sodium]
stdout: 101.4 ± 10.4%

----------
- target: human A3AR (Homo sapiens)
- Construct: expressed in transfected cells
- assay_info: LOPAC library primary screen: single concentration (10 μM) inhibition of 25 nM CA200645 binding, PHERAstar FS
- assay_conditions: % of control wells (1% DMSO and 25 nM CA200645); compounds at 10 µM; whole live cells expressing the A3AR; mean ± SD, three experiments in duplicate
Where a name gives a salt, the structure may show the parent alone.
Known % 25 nM CA200645 binding of a selection of compounds
Field format: number, assumed %, no unit text.

Example compounds with recorded % 25 nM CA200645 binding:
>>> data_value("CCOC(=O)[C@]12CC1/C(=N\\O)c1ccccc1O2 (mixture of isomers)")
88.3
>>> data_value("Oc1ccc(/C=C/c2ccc(/C=C/c3ccc(O)cc3)c(Br)c2)cc1")
24.6
>>> data_value("OC(CN1CCC(Cc2ccc(F)cc2)CC1)c1ccc(Cl)cc1 (stereo not shown)")
98.8
>>> data_value("C=C/C(C)=C/[C@@]1(C)SC(=O)C(C)=C1O")
98.5
>>> data_value("CCn1ccnc1CC1COc2ccccc2O1 (stereo not shown) [Imiloxan hydrochloride]")
97.3

stdin: Return % 25 nM CA200645 binding for the following compound: CN(C(=O)CCCOc1ccc2[nH]c(=O)ccc2c1)C1CCCCC1 [Cilostamide]
stdout: 75.9

stdin: Return % 25 nM CA200645 binding for the following compound: Clc1ccc2c(c1)N=C(N1CCNCC1)c1ccccc1N2
stdout: 98.4
